# System: HeLa MZ
# ASSAY DETAILS: LBPA endosome anti-LBPA integrated intensity (sum per cell), Z-score; higher = more LBPA staining
# RECORDED CONDITIONS: compound concentration in added solution (µM; 5 µl added to 20 µl cells): 10; 18 h
Where a name gives a salt, the structure may show the parent alone.
METRIC: LBPA endosome anti-LBPA integrated intensity (z-score)
Simply state the number, no unit and no words.

Request: Using the record for CN1[C@@H]2CC[C@H]1C[C@@H](OC(=O)[C@H](CO)c1ccccc1)C2 [Hyoscyamine (L)] , report its LBPA endosome anti-LBPA integrated intensity (z-score).
Result: -1.24

Request: Using the record for CCCCCC[C@H]1C(=O)O[C@H](C)[C@H](NC(=O)c2cccc(NC=O)c2O)C(=O)O[C@@H](C)[C@@H]1OC(=O)CC(C)C [Antimycin A] , report its LBPA endosome anti-LBPA integrated intensity (z-score).
Result: -0.65

Request: Using the record for CCC1(c2ccc(N)cc2)CCC(=O)NC1=O (stereo not drawn) [Glutethimide, para-amino] , report its LBPA endosome anti-LBPA integrated intensity (z-score).
Result: -1.41

Request: Using the record for NC(=O)CN1CCCC1=O [Piracetam] , report its LBPA endosome anti-LBPA integrated intensity (z-score).
Result: -0.0728

Request: Using the record for CC[C@@H](CO)NC(=O)[C@@H]1C=C2c3cccc4[nH]cc(c34)C[C@H]2N(C)C1 [Methylergometrine maleate] , report its LBPA endosome anti-LBPA integrated intensity (z-score).
Result: -1.25

Request: Using the record for CCN(C(C)=O)c1cccc(-c2ccnc3c(C#N)cnn23)c1 [Zaleplon] , report its LBPA endosome anti-LBPA integrated intensity (z-score).
Result: -0.0487

Request: Using the record for CN1C[C@H](CNC(=O)OCc2ccccc2)C[C@@H]2c3cccc4c3c(cn4C)C[C@H]21 [Metergoline] , report its LBPA endosome anti-LBPA integrated intensity (z-score).
Result: 1.47

Request: Using the record for CCC1(CC)C(=O)C=CNC1=O [Pyrithyldione] , report its LBPA endosome anti-LBPA integrated intensity (z-score).
Result: -1.42

Request: Using the record for C[N+]12CCC(CC1)C(OC(=O)C(O)(c1ccccc1)c1ccccc1)C2 (stereo not drawn) [Clidinium bromide] , report its LBPA endosome anti-LBPA integrated intensity (z-score).
Result: -0.195

Request: Using the record for CC(C)(C)NCC(O)c1cc(Cl)c(N)c(Cl)c1 (stereo not drawn) [Clenbuterol hydrochloride] , report its LBPA endosome anti-LBPA integrated intensity (z-score).
Result: 0.441

Request: Using the record for CCCN1C[C@H](CSC)C[C@@H]2c3cccc4[nH]cc(c34)C[C@H]21 [Pergolide mesylate] , report its LBPA endosome anti-LBPA integrated intensity (z-score).
Result: 1.89

Request: Using the record for CC[C@@]1([C@@H]2O[C@@H]([C@H]3O[C@@](O)(CO)[C@H](C)C[C@@H]3C)C[C@@H]2C)CC[C@H]([C@]2(C)CC[C@]3(C[C@H](O)[C@@H](C)[C@@H]([C@@H](C)[C@@H](OC)[C@H](C)C(=O)O)O3)O2)O1 [Monensin sodium salt] , report its LBPA endosome anti-LBPA integrated intensity (z-score).
Result: -0.505

Request: Using the record for CC(O)(CS(=O)(=O)c1ccc(F)cc1)C(=O)Nc1ccc(C#N)c(C(F)(F)F)c1 (stereo not drawn) [Bicalutamide] , report its LBPA endosome anti-LBPA integrated intensity (z-score).
Result: -0.104

Request: Using the record for COc1ccc(CN2CCNCC2)c(OC)c1OC [Trimetazidine dihydrochloride] , report its LBPA endosome anti-LBPA integrated intensity (z-score).
Result: 0.3

Request: Using the record for CN1CCC2(C)c3cc(O)ccc3N(C)C12 (single isomer, unassigned; (-)) [(-)-Eseroline fumarate salt] , report its LBPA endosome anti-LBPA integrated intensity (z-score).
Result: 0.682

Request: Using the record for CN(C)C(=O)Oc1cc(OC(=O)N(C)C)cc(C(O)CNC(C)(C)C)c1 (stereo not drawn) [Bambuterol hydrochloride] , report its LBPA endosome anti-LBPA integrated intensity (z-score).
Result: -0.352

Request: Using the record for COc1ccc(C(CN(C)C)C2(O)CCCCC2)cc1 (stereo not drawn) [Venlafaxine] , report its LBPA endosome anti-LBPA integrated intensity (z-score).
Result: 0.627

Request: Using the record for O=C(NCNC(=O)NC1C(=O)NC(=O)N1CO)NC1C(=O)NC(=O)N1CO (stereo not drawn) [Imidurea] , report its LBPA endosome anti-LBPA integrated intensity (z-score).
Result: 0.0233

Request: Using the record for CC[C@@H](C(N)=O)N1CCCC1=O [Levetiracetam] , report its LBPA endosome anti-LBPA integrated intensity (z-score).
Result: -1.5

Request: Using the record for C[C@]12CC[C@@H](O)C[C@@H]1CC[C@@H]1[C@@H]2CC[C@]2(C)C(=O)CC[C@@H]12 [Androsterone] , report its LBPA endosome anti-LBPA integrated intensity (z-score).
Result: -0.552

Request: Using the record for Clc1ccc(C(OCCN2CCCCC2)c2ccccc2)cc1 (stereo not drawn) [Cloperastine hydrochloride] , report its LBPA endosome anti-LBPA integrated intensity (z-score).
Result: 1.44

Request: Using the record for COc1ccc(CCN2CCC(Nc3nc4ccccc4n3Cc3ccc(F)cc3)CC2)cc1 [Astemizole] , report its LBPA endosome anti-LBPA integrated intensity (z-score).
Result: -0.627

Request: Using the record for C[C@]12CCC(=O)C(O)=C1CC[C@@H]1[C@@H]2CC[C@]2(C)C(=O)CC[C@@H]12 [Formestane] , report its LBPA endosome anti-LBPA integrated intensity (z-score).
Result: 1.9

Request: Using the record for O[C@@H]1CCCC[C@H]1N1CCC(c2ccccc2)CC1 [L(-)-vesamicol hydrochloride] , report its LBPA endosome anti-LBPA integrated intensity (z-score).
Result: 1.21

Request: Using the record for CCOC(=O)c1cncn1[C@H](C)c1ccccc1 [Etomidate] , report its LBPA endosome anti-LBPA integrated intensity (z-score).
Result: -1.14

Request: Using the record for Oc1ccc2c3c1O[C@H]1[C@@H](O)CC[C@@]4(O)[C@@H](C2)N(CC2CCC2)CC[C@]314 [Nalbuphine hydrochloride] , report its LBPA endosome anti-LBPA integrated intensity (z-score).
Result: -0.32

Request: Using the record for O=C(O)CCCc1ccc(N(CCCl)CCCl)cc1 [Chlorambucil] , report its LBPA endosome anti-LBPA integrated intensity (z-score).
Result: 1.86

Request: Using the record for CCCC(C)(COC(N)=O)COC(=O)NC(C)C (stereo not drawn) [Carisoprodol] , report its LBPA endosome anti-LBPA integrated intensity (z-score).
Result: -0.835

Request: Using the record for COc1ccc(C(=O)N2CCCC2=O)cc1 [Aniracetam] , report its LBPA endosome anti-LBPA integrated intensity (z-score).
Result: 0.124

Request: Using the record for C[N+]1(C)[C@@H]2CC[C@H]1C[C@@H](OC(=O)C(CO)c1ccccc1)C2 (stereo partly drawn) [Methylatropine nitrate] , report its LBPA endosome anti-LBPA integrated intensity (z-score).
Result: 0.224

Request: Using the record for C[C@]12CC[C@@H](O)C[C@H]1CC[C@@H]1[C@@H]2CC[C@]2(C)C(=O)CC[C@@H]12 [3-alpha-Hydroxy-5-beta-androstan-17-one] , report its LBPA endosome anti-LBPA integrated intensity (z-score).
Result: 1.16

Request: Using the record for CCNCC(O)c1cccc(O)c1 (stereo not drawn) [Etilefrine hydrochloride] , report its LBPA endosome anti-LBPA integrated intensity (z-score).
Result: -0.0522

Request: Using the record for C[N+]1(C)CCCC(OC(=O)C(O)(c2ccccc2)c2ccccc2)C1 (stereo not drawn) [Mepenzolate bromide] , report its LBPA endosome anti-LBPA integrated intensity (z-score).
Result: -0.861
